System: Candida albicans
Assay: Fungicidal activity against Candida albicans ATCC 90028 assessed as fungal growth inhibition incubated for 18 to 24 hrs by alamar blue assay
Assay type: functional
Details: Candida albicans, ATCC 90028, time 18-24 hrs; read-out: MFC

>  <molecule>
CCCCCCCCCCCCCCC1(O)C(C)=C(C)C2=[N+](Cc3ccc(C#N)cc3)CCCN21 (centres undefined)

>  <system_under_test>
Candida albicans

>  <value_units>
µM

>  <MFC>
4.5

$$$$
>  <molecule>
CCCCCCCCCCCCCCC1(O)C(C)=C(C)C2=[N+](Cc3cccc(OC)c3)CCCN21 (centres undefined)

>  <system_under_test>
Candida albicans

>  <value_units>
µM

>  <MFC>
3

$$$$
>  <molecule>
CCCCCCCCCCCCCCC1(O)C(C)=C(C)C2=[N+](Cc3ccc(Br)cc3)CCCN21 (centres undefined)

>  <system_under_test>
Candida albicans

>  <value_units>
µM

>  <MFC>
5.4

$$$$
>  <molecule>
CCCCCCCCCCCCCCc1c(C)c(C)cn1CCCNC

>  <system_under_test>
Candida albicans

>  <value_units>
µM

>  <MFC>
12

$$$$
>  <molecule>
CCCCCCCCCCCCCCC1(O)C(C)=C(C)C2=[N+](Cc3cc(OC)c(OC)c(OC)c3)CCCN21 (centres undefined)

>  <system_under_test>
Candida albicans

>  <value_units>
µM

>  <MFC>
5.3

$$$$
>  <molecule>
CCCCCCCCCCCCCCC1(O)C(C)=C(C)C2=[N+](CC(=O)NCCCNC(=O)OC(C)(C)C)CCCN21 (centres undefined)

>  <system_under_test>
Candida albicans

>  <value_units>
µM

>  <MFC>
14

$$$$
>  <molecule>
CCCCCCCCCCCCCCC1(O)C(C)=C(C)C2=[N+](CC(=O)NCCCN)CCCN21 (centres undefined)

>  <system_under_test>
Candida albicans

>  <value_units>
µM

>  <MFC>
18

$$$$
>  <molecule>
C#CC[N+]1=C2C(C)=C(C)C(O)(CCCCCCCCCCCCCC)N2CCC1 (centres undefined)

>  <system_under_test>
Candida albicans

>  <value_units>
µM

>  <MFC>
5.2

$$$$
>  <molecule>
CCCCCCCCCCCCCCC1(O)C(C)=C(C)C2=[N+](CC#N)CCCN21 (centres undefined)

>  <system_under_test>
Candida albicans

>  <value_units>
µM

>  <MFC>
10

$$$$
>  <molecule>
CCCCCCCCCCCCCCC1(O)C(C)=C(C)C2=[N+](CC(=O)c3cccc(Cl)c3)CCCN21 (centres undefined)

>  <system_under_test>
Candida albicans

>  <value_units>
µM

>  <MFC>
18

$$$$
>  <molecule>
C=CC[N+]1=C2C(C)=C(C)C(O)(CCCCCCCCCCCCCC)N2CCC1 (centres undefined)

>  <system_under_test>
Candida albicans

>  <value_units>
µM

>  <MFC>
4.3

$$$$
>  <molecule>
CCCCCCCCCCCCCCC1(O)C(C)=C(C)C2=[N+](Cc3ccc(Cl)cc3)CCCN21 (centres undefined)

>  <system_under_test>
Candida albicans

>  <value_units>
µM

>  <MFC>
3.7

$$$$
>  <molecule>
CCCCCCCCCCCCCCC1(O)C(C)=C(C)C2=[N+](Cc3cnnn3Cc3ccccc3)CCCN21 (centres undefined)

>  <system_under_test>
Candida albicans

>  <value_units>
µM

>  <MFC>
6.8

$$$$
>  <molecule>
CCCCCCCCCCCCCCC1(O)C(C)=C(C)C2=[N+](Cc3ccc([N+](=O)[O-])cc3)CCCN21 (centres undefined)

>  <system_under_test>
Candida albicans

>  <value_units>
µM

>  <MFC>
4.3

$$$$
>  <molecule>
CCCCCCCCCCCCCCC1(O)C(C)=C(C)C2=[N+](C)CCCN21 (centres undefined)

>  <system_under_test>
Candida albicans

>  <value_units>
µM

>  <MFC>
6.5

$$$$
>  <molecule>
CCCCCCCCCCCCCCC1(O)C(C)=C(C)C2=[N+](Cc3ccc(F)cc3F)CCCN21 (centres undefined)

>  <system_under_test>
Candida albicans

>  <value_units>
µM

>  <MFC>
3.7

$$$$
>  <molecule>
CCCCCCCCCCCCCCC1(O)c2ccccc2C2=[N+](C)CCCN21 (centres undefined)

>  <system_under_test>
Candida albicans

>  <value_units>
µM

>  <MFC>
4.3

$$$$
>  <molecule>
CCCCCCCCCCCCCCC1(O)C(C)=C(C)C2=[N+](CC(=O)c3cccs3)CCCN21 (centres undefined)

>  <system_under_test>
Candida albicans

>  <value_units>
µM

>  <MFC>
7.4

$$$$
>  <molecule>
CCCCCCCCCCCCCCC1(O)C(C)=C(C)C2=[N+](Cc3ccc(F)cc3)CCCN21 (centres undefined)

>  <system_under_test>
Candida albicans

>  <value_units>
µM

>  <MFC>
6.7

$$$$

###

System: Candida albicans
Assay: Fungicidal activity against Candida albicans ATCC 90028 assessed as fungal growth inhibition incubated for 18 to 24 hrs by alamar blue assay
Type: functional
Conditions: Candida albicans, ATCC 90028, time 18-24 hrs; read-out: MFC
The entries below come with measured MFC values attached.
reported_endpoint: MFC (µM)

>  <molecule>
CCCCCCCCCCCCCCC1(O)C(C)=C(C)C2=[N+](Cc3cccc(C(F)(F)F)c3)CCCN21 (configuration not stated)

>  <value_units>
µM

>  <quantitative_result>
4.2

$$$$
>  <molecule>
CCCCCCCCCCCCCCC1(O)C(C)=C(C)C2=[N+](C/C=C/c3ccccc3)CCCN21 (configuration not stated)

>  <value_units>
µM

>  <quantitative_result>
3.8

$$$$
>  <molecule>
CCCCCCCCCCCCCCC1(O)C(C)=C(C)C2=[N+](Cc3ccccc3)CCCN21 (configuration not stated)

>  <value_units>
µM

>  <quantitative_result>
3.9

$$$$
>  <molecule>
CCCCCCCCCCCCCCC1(O)C(C)=C(C)C2=[N+](Cc3ccc(OC)cc3)CCCN21 (configuration not stated)

>  <value_units>
µM

>  <quantitative_result>
3.7

$$$$
>  <molecule>
CCCCCCCCCCCCCCC1(O)C(C)=C(C)C2=[N+](CC(=O)OCC)CCCN21 (configuration not stated)

>  <value_units>
µM

>  <quantitative_result>
17

$$$$
>  <molecule>
CCCCCCCCCCCCCCC1(O)C(C)=C(C)C2=[N+](Cc3ccc(C(F)(F)F)cc3)CCCN21 (configuration not stated)

>  <value_units>
µM

>  <quantitative_result>
7

$$$$
>  <molecule>
CCCCCCCCCCCCCCC1(O)C=CC2=[N+](C)CCCN21 (configuration not stated)

>  <value_units>
µM

>  <quantitative_result>
5.2

$$$$

###

Test system: Pichia kudriavzevii
Assay: Fungicidal activity against Candida krusei ATCC 6258 assessed as fungal growth inhibition incubated for 18 to 24 hrs by alamar blue assay
Format: functional
Details: time 18-24 hrs
Calls of active or inactive are those of the source. The calls are words filed in the database; no cut-off is given here.

>  <molecule>
CCCCCCCCCCCCCCc1c(C)c(C)cn1CCCNCc1ccccc1

>  <system_under_test>
Pichia kudriavzevii

>  <MFC>
inactive

$$$$
>  <molecule>
CCCCCCCCCCCCCCC1(O)C(C)=C(C)C2=[N+](Cc3ccccc3)CCCN21.[Cl-] (stereo unspecified)

>  <system_under_test>
Pichia kudriavzevii

>  <MFC>
4.3 µM

$$$$
>  <molecule>
CCCCCCCCCCCCCCC1(O)C(C)=C(C)C2=[N+](Cc3ccc4ccccc4c3)CCCN21 (stereo unspecified)

>  <system_under_test>
Pichia kudriavzevii

>  <MFC>
inactive

$$$$
>  <molecule>
CCCCCCCCCCCCCCC1(O)C(C)=C(C)C2=[N+](CC(=O)NCCOCCOCCOCCNC(=O)CCCC[C@@H]3SC[C@@H]4NC(=O)N[C@@H]43)CCCN21 (stereo partly specified)

>  <system_under_test>
Pichia kudriavzevii

>  <MFC>
inactive

$$$$
>  <molecule>
CCCCCCCCCCCCCCC1(O)C(C)=C(C)C2=[N+](CC(=O)O)CCCN21 (stereo unspecified)

>  <system_under_test>
Pichia kudriavzevii

>  <MFC>
inactive

$$$$
>  <molecule>
CCCCCCCCCCCCCCC1(O)C(C)=C(C)C2=[N+](C)c3ccccc3CN21 (stereo unspecified)

>  <system_under_test>
Pichia kudriavzevii

>  <MFC>
inactive

$$$$

###

Test system: Pichia kudriavzevii
Assay: Antifungal activity against Candida krusei ATCC 6258 assessed as fungal growth inhibition incubated for 18 to 24 hrs by alamar blue assay
Type: functional
Settings: time 18-24 hrs
Active and inactive are the calls of the source. The calls are words filed in the database; no cut-off is given here.

>  <compound>
CCCCCCCCCCCCCCC1(O)C(C)=C(C)C2=[N+](Cc3ccc4ccccc4c3)CCCN21 (stereo unspecified)

>  <MIC>
inactive

$$$$
>  <compound>
CCCCCCCCCCCCCCC1(O)C(C)=C(C)C2=[N+](C)c3ccccc3CN21 (stereo unspecified)

>  <MIC>
inactive

$$$$
>  <compound>
CCCCCCCCCCCCCCC1(O)C(C)=C(C)C2=[N+](CC(=O)NCCOCCOCCOCCNC(=O)CCCC[C@@H]3SC[C@@H]4NC(=O)N[C@@H]43)CCCN21 (stereo partly specified)

>  <MIC>
inactive

$$$$
>  <compound>
CCCCCCCCCCCCCCC1(O)C(C)=C(C)C2=[N+](CC(=O)O)CCCN21 (stereo unspecified)

>  <MIC>
inactive

$$$$
>  <compound>
CCCCCCCCCCCCCCc1c(C)c(C)cn1CCCNCc1ccccc1

>  <MIC>
inactive

$$$$
>  <compound>
CCCCCCCCCCCCCCC1(O)C(C)=C(C)C2=[N+](Cc3ccccc3)CCCN21.[Cl-] (stereo unspecified)

>  <MIC>
4.3 µM

$$$$
